Answer each item with its documented TGI.
System: K-562 leukemia
Experiment: NCI tumour cell line growth inhibition, 48 h

Reference set, count: 3
[[record]]
compound = "Cc1ccc(-c2nc(/C=N/Nc3cc(C)nc4ccc(Br)cc34)c(C)o2)cc1"
experimental_value = "4.58 µM"

[[record]]
compound = "CC(C)=NOC(=O)OC[C@H]1O[C@@H](n2cnc3c(N)ncnc32)C(O)C1O (stereo partly specified)"
experimental_value = "> 100 µM"

[[record]]
compound = "O=C1CCCCCCCCCCC1CN1CCOCC1 (stereo unspecified)"
experimental_value = "> 100 µM"


Go through the list and state TGI for each entry.
1. CN(CCNC(=O)c1nn(-c2ccc(Cl)cc2Cl)c2c1Cc1ccccc1-2)CCNC(=O)c1nn(-c2ccc(Cl)cc2Cl)c2c1Cc1ccccc1-2
2. O=c1oc2cc(O)ccc2c2oc3cc(O)ccc3c12
3. C/C=C\C(CC(=O)NCCC1CN(C(=O)OCc2ccccc2)c2ccccc21)CC(=O)OC (stereo unspecified)
4. O=C(Nc1ccccc1)c1cc(S(=O)(=O)N2CCNC2=O)c(S)cc1Cl
5. O=C(Nc1cccc(C(F)(F)F)c1)c1ccc(NC2=C(Cl)C(=O)N(Cc3ccccc3)C2=O)cc1
6. O=C1c2ccccc2C(=O)c2c1oc1c2c(=O)[nH]c2ccc(Cl)cc21
7. COc1ccc2c(c1)C(=O)c1c-2c(N2CCN(C(=O)CCNCCNCCN)CC2)nc2ccccc12
8. FC(F)(F)c1cc(NC(=S)N2c3ccccc3-n3cccc3C2c2cccnc2)cc(C(F)(F)F)c1 (stereo unspecified)

1: > 26.3 µM; 2: > 125 µM; 3: > 100 µM; 4: > 100 µM; 5: 12.5 µM; 6: 2.01 µM; 7: 9.63 µM; 8: 19.3 µM

For every listed record, write down its TGI.
1. O=Cc1ccccc1CCn1c(=O)c2cc3c(=O)n(CCc4ccccc4C=O)c(=O)c3cc2c1=O
2. O=C(c1ccccc1)N(CCCCNC(=O)C(F)(F)F)CCCNC(=O)C(F)(F)F
3. COC(=O)c1sc2c(=O)c(C(=O)OC)c(C(=O)OC)sc2c(=O)c1C(=O)OC
4. O=C1CCCCN1
5. O=C1/C(=C/c2ccc(F)cc2)CN(C(=O)C(Cl)Cl)C/C1=C\c1ccc(F)cc1
6. CCCCC(=O)c1c(O)ccc2c(C)cc(=O)oc12
7. O=C(O)CCSC(=O)Nc1cccc2ccccc12
8. COc1cc2c3c(n(CCCn4cncn4)c(=O)c2cc1OC)-c1cc2c(cc1C3=O)OCO2

1: > 100 µM; 2: > 100 µM; 3: > 100 µM; 4: > 1120 µM; 5: > 100 µM; 6: > 100 µM; 7: > 100 µM; 8: 28.1 µM

Give measured TGI for every item shown.
1. CCN(CC)CCCNc1n[n+]([O-])c2ccccc2[n+]1[O-]
2. O=S1(=O)c2cc(S(=O)(=O)n3ccnc3)ccc2NC2=NCCCN21

1: 76.1 µM; 2: > 100 µM

###

Tested on: U251 CNS
Thanks in advance; please answer with one of these: YES for active, NO for inactive

[[record]]
compound = "CC(C)=Cc1cccc2[nH]c(O)c(N=Nc3ccc(S(N)(=O)=O)cc3)c12"
discrete_label = "NO"

[[record]]
compound = "COc1ccc(CNCCCN2C(=O)c3ccc4c5c(ccc(c35)C2=O)C(=O)N(CCCNCc2ccc(OC)c(OC)c2OC)C4=O)c(OC)c1OC"
discrete_label = "YES"

[[record]]
compound = "COC(=O)C1=C(C(=O)ON)[C@@H]2C=C[C@@]1([C@@H](Cc1ccccc1)Nc1ccccc1)O2"
discrete_label = "NO"

[[record]]
compound = "C/C(CC(C)(C)N1CC1)=N\\NC(=O)Nc1cccc2ccccc12"
discrete_label = "NO"

[[record]]
compound = "C1C[OH+]CCNCC[OH+]CC[OH+]CCN1.N.[Cl-].[Pt+4]"
discrete_label = "NO"


// outcome(item) with item = CCc1cccc(NC(=O)Nc2ccc(Oc3ccc4nc(NC(=O)OC)[nH]c4c3)cc2)c1
NO

# lookup: test call for COc1ccc2nc3c(cc2c1)C(=O)CC(c1ccccc1)C3 (centres undefined)
NO

Answer briefly: the call reported for CC[C@H]1CCC/C=C/[C@@H]2C[C@H](O)C[C@H]2[C@H](O)/C=C/C(=O)O1 in this assay.
YES

Please indicate how the test categorized CC1=C2[C@@H](CC1)[C@]1(C)O[C@@](C(C)C)(C[C@H]1OC(=O)CO)[C@H]2OC(=O)CCCc1ccccc1 .
NO

State the result this test recorded for CCOC(=O)Nc1ccc2c(c1)C(=O)N(CC)c1ccccc1O2 .
YES

Check the results log: what was the call for Cc1ccc2[nH]c(C(=O)NN3C(=O)C(C)SC34CCC(C)CC4)c(-c3ccccc3)c2c1 (centres undefined) ?
NO

Per the assay record, what outcome was assigned to Cc1c[nH]c(=O)n(Cc2nnc(CCC(=O)c3nc4ccccc4[nH]3)o2)c1=O ?
YES

// return assay outcome for Cc1ccc(-c2nc(/C=N/Nc3cc(C)nc4ccc(Br)cc34)c(C)o2)cc1
NO

Given O=C(Nc1n[nH]c2nc(-c3ccc(O)cc3)c(Br)cc12)C1CC1 , state the outcome it received in this test.
NO

What call does the record list for Fc1ccc(-c2ncn(CCCN3CCOCC3)c2-c2ccncc2)cc1 ?
NO

For this compound, state the assay outcome: O=C(c1ccc2ccccc2c1)c1c(C(F)(F)F)n([O-])c2cc(C(F)(F)F)ccc2[n+]1=O
NO

Record lookup: outcome of this test for CCn1c(SCC(=O)Nc2cc(C(F)(F)F)ccc2Cl)nc2ccccc2c1=O ?
NO

What was the test verdict on CC1(C)N=c2cc3c(cc2N1c1ccc(Cl)cc1)=Nc1ccccc1N3c1ccc(Cl)cc1 ?
NO

Hello, I am checking results. What call was entered for COc1cc2c(cc1O)c(=O)n(CCN(C)C)c1c3cc4c(cc3ncc21)OCO4 ?
YES

###

Give measured TGI for each item. Keep answers brief.
Test system: COLO 205 colon
Assay: NCI tumour cell line growth inhibition, 48 h

[[record]]
compound = "COc1ccc(/C=C2/SC(=Nc3ccccc3)N(NC(=O)Cc3ccccc3)C2=O)c(OC)c1"
recorded_endpoint = "TGI"
experimental_value = "> 100 µM"

[[record]]
compound = "N#Cc1ccccc1NC(=O)C(=O)C(C(=O)c1ccncc1)C1OC(=O)c2ccccc21 (stereo unspecified)"
recorded_endpoint = "TGI"
experimental_value = "> 100 µM"

[[record]]
compound = "COC(=O)/C(=N\\NC(N)=O)C(C#N)c1ccccc1 (stereo unspecified)"
recorded_endpoint = "TGI"
experimental_value = "> 100 µM"

[[record]]
compound = "COc1ccc(C[C@]23CCC(=O)N2CCc2cc(OC)c(O)cc23)cc1O"
recorded_endpoint = "TGI"
experimental_value = "> 100 µM"

[[record]]
compound = "O=C(c1ccc2ccccc2c1)c1c(C(F)(F)F)n([O-])c2cc(C(F)(F)F)ccc2[n+]1=O"
recorded_endpoint = "TGI"
experimental_value = "4.05 µM"

[[record]]
compound = "N#CC1(C#N)[C@@H]2CCC=C(Sc3ccccc3)[C@@H]21"
recorded_endpoint = "TGI"
experimental_value = "32 µM"

[[record]]
compound = "O=C(Nc1ccccc1)c1cc(S(=O)(=O)N2CCNC2=O)c(S)cc1Cl"
recorded_endpoint = "TGI"
experimental_value = "> 100 µM"

[[record]]
compound = "Cc1ccc2nc(CN(CCO)CCO)cc(=O)n2c1"
recorded_endpoint = "TGI"
experimental_value = "> 100 µM"

[[record]]
compound = "Nc1ccn(CCOC(c2ccccc2)P(=O)(O)O)c(=O)n1 (stereo unspecified)"
recorded_endpoint = "TGI"
experimental_value = "> 100 µM"

[[record]]
compound = "Cn1ccc(=NS(=O)(=O)c2ccccc2)cc1"
recorded_endpoint = "TGI"
experimental_value = "> 100 µM"


Moving on to another compound below.
Consider CCO[C@H]1O[C@@H]2OC3(C)CCC4[C@H](C)CCC([C@H]1C)[C@]42OO3 (stereo partly specified) . Its measured TGI is 25.5 µM

###

System: NCI-H23 lung
Assay: NCI tumour cell line growth inhibition, 48 h
Would you mind telling me the reported TGI of each entry?

[[record]]
compound = "N#Cc1ccc(OCCSCCCCCCCCCCSCCOc2ccc(C#N)cc2)cc1"
recorded_endpoint = "TGI"
experimental_value = "> 100 µM"

[[record]]
compound = "O=Cc1ccccc1CCn1c(=O)c2cc3c(=O)n(CCc4ccccc4C=O)c(=O)c3cc2c1=O"
recorded_endpoint = "TGI"
experimental_value = "> 100 µM"

[[record]]
compound = "O=S1(=O)c2cc(S(=O)(=O)n3ccnc3)ccc2NC2=NCCCN21"
recorded_endpoint = "TGI"
experimental_value = "> 100 µM"

[[record]]
compound = "CN/N=C(\\C)C(CN1CCCCC1)C(C1=C(O)c2ccccc2OC1)c1ccccc1 (configuration not stated)"
recorded_endpoint = "TGI"
experimental_value = "> 100 µM"

[[record]]
compound = "CCOC(=O)[C@@H](NC(=O)OC(C)(C)C)[C@@H](O)C(=O)OCC"
recorded_endpoint = "TGI"
experimental_value = "> 100 µM"

[[record]]
compound = "Nc1ncnc2c1ncn2[C@@H]1O[C@H](COP(=O)(O)OP(=O)(O)OC[C@H]2O[C@@H](OCCCO)[C@H](O)[C@@H]2O)[C@@H](O)[C@H]1O"
recorded_endpoint = "TGI"
experimental_value = "> 100 µM"

[[record]]
compound = "O=[N+]([O-])c1cc(I)cc(/C=N/NS(=O)(=O)c2ccc(Cl)cc2)c1O"
recorded_endpoint = "TGI"
experimental_value = "34.2 µM"

[[record]]
compound = "O=C1/C(=C/c2ccccc2)CCc2ccc([N+](=O)[O-])cc21"
recorded_endpoint = "TGI"
experimental_value = "> 100 µM"


Would you mind giving TGI for every compound in the list below?
1. Cc1ccc(-c2nc(/C=N/Nc3cc(C)nc4ccc(Br)cc34)c(C)o2)cc1
2. CNC(=O)N1CN(c2ccccc2)C2(CCN(Cc3ccccc3)CC2)C1=O
3. CC(=O)OC1=C2CC[C@@H]3C(CC[C@@]4(C)C3CC[C@@H]4OC(C)=O)[C@@]2(C)CC(C#N)C1=O (some centres not stated)
4. O=[N+]([O-])c1ccc(N=Nc2c(Cl)cc(O)cc2Cl)cc1
5. CC[C@]12C=CCN3CC[C@@]4(c5ccc(OC)cc5N(C)[C@H]4[C@@](O)(C(=O)OC)[C@@H]1OC(=O)CCC(=O)O[C@H]1CC[C@H]4[C@@H]5CC[C@H]6CC(=O)CC[C@]6(C)[C@H]5CC[C@]14C)[C@@H]32
6. CC[C@]1(Cc2ccc(OC)c(OC)c2)C2CC(C(=O)OC)ON2O[C@H](OCc2ccccc2)[C@@H]1OC(C)=O (some centres not stated)

["4.75 µM", "> 100 µM", "> 100 µM", "6.71 µM", "> 100 µM", "> 100 µM"]

Please state TGI for every compound in the list that follows.
1. CCc1cccc(C(C)CC)c1NC(=O)C(=O)Cc1nc2ccccc2o1 (configuration not stated)
2. O=c1c(C(c2ccc([N+](=O)[O-])cc2)c2c(O)c3ccccc3n(-c3ccccc3)c2=O)c(O)c2ccccc2n1-c1ccccc1
3. CCc1ccc(Cc2ccc(CC)c(NC(=O)C(=O)C3NC(=S)NC3=O)c2CC)c(CC)c1NC(=O)C(=O)C1NC(=S)NC1=O (configuration not stated)

> 50 µM
34.3 µM
> 100 µM
